target-entity: T1, human PACAP38 (human, not fully specified; C-terminal lysine is amidated; N-terminal or C-terminal biotin in the HTRF and PC-12 cell binding assays)
T1 construct: synthetic peptide, bought; also called huPACAP (1-38)
T1 peptide: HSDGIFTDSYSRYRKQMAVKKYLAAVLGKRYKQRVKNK
assay-procedure: HTRF binding, biotin-PACAP38
For each entry below, report its pEC50 value.
Scale: pEC50 equals -log10([C]), with [C] in mol/L.

Q) Give the measured pEC50 for anti-PACAP antibody Ab5 (antibody, human IgG1, kappa, N297A, V domains shown, full-length rabbit/human chimeric antibody) VH: QSVEESGGRLVTPGTPLTLTCTVSGFSLSSYAMIWVRQAPGKGLEWIGIIYDNGDTYYASWAKGRFTISKTSTTVYLKIASPTTEDTATYFCAREPGSTTQNDLWGQGTLVTVSS VL: DVVMTQTPASVSEPVGGTVTIKCQASENIYNSLLWYQQKPGQPPKLLIYRASTLASGVSSRFKGSGSGTEFTLTISDLECADAATYYCQNYYNIWTNGAAFGGGTEVVVKR
A) 9.22

Q) Quote pEC50 reported for anti-PACAP antibody Ab22 (antibody, human IgG1, kappa, N297A, V domains shown, full-length rabbit/human chimeric antibody; PACAP38 specific) VH: QEQLVESGGGLVQPEGSLTLTCTASGFDFSSNAMCWVRQAPGKGLEWIGSIYNADGKNYYAIWAKGRFTISRTSSTTVTLQMTSLTAADTATYFCARDFDLWGQGTLVTVSS VL: AAVLTQTPSPVSAAVGGTVTINCQSSQSVYDNDWLAWFQQKPGQPPKLLIYLTSTLASGVPSRFSGSGSGTQFTLTISGVQCDDAATYYCLGGYDEDGDTHVFGGGTEVVVKR please.
A) 9.24

Q) Provide only the value of recorded pEC50 for anti-PACAP antibody Ab15 (antibody, human IgG1, kappa, N297A, V domains shown, full-length rabbit/human chimeric antibody) VH: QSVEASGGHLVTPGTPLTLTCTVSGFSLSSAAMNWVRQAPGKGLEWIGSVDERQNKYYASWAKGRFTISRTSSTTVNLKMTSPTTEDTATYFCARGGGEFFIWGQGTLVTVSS VL: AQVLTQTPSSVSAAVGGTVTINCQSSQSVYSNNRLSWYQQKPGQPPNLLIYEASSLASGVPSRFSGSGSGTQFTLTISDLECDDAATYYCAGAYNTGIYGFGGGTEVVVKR
A) 9.21

Q) Return reported pEC50. Input binder: anti-PACAP antibody Ab3 (antibody, human IgG1, kappa, N297A, V domains shown, full-length rabbit/human chimeric antibody) VH: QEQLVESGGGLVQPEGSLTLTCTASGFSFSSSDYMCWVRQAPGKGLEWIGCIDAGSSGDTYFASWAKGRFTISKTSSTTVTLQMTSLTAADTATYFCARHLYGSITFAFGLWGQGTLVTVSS VL: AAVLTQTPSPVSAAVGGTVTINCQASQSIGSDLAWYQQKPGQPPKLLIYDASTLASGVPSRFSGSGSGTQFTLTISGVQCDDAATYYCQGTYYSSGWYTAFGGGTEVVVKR
A) 9.35

Q) Supply measured pEC50 of anti-PACAP antibody Ab11 (antibody, human IgG1, kappa, N297A, V domains shown, full-length rabbit/human chimeric antibody) VH: QSVEESGGRLVTPGTPLTLTCTASGFSLSRYAMGWVRQAPGKGLEWIGDISTYGTTDYASWVNGRFTISRTSTTVTLKMTSLTTEDTATYFCARDYWLSLWGQGTLVTVSS VL: AAVLTQTPSPVSAAVGGTVTIKCQSSQSVYDNNALAWYQQKPGQPPKLLIYAASNLASGVPDRFSGSGSGTQFTLTISGVQCDDAATYYCLGGYDDAADNAFGGGTEVVVKR in your reply.
A) 9.28

Q) For anti-PACAP antibody Ab16 (antibody, human IgG1, kappa, N297A, V domains shown, full-length rabbit/human chimeric antibody) VH: QSVEESGGRLVTPGTPLTLTCTVSGFSLSSAAMSWVRQAPGKGLEWIGIIDDSGNTYYASWAKARFTISKTSSTTVDLKMTSPTTEDTATYFCARGGGEFFIWGPGTLVTVSS VL: DPVLTQTPSSVSAAVGGTVTINCQSSQSVYNNKWLSWYQQKPGQSPKFLIYQASNLASGVPSRFKGSGSGTQFTLTISDLECDDGATYYCAGGYRGNVCGFGGGTEVVVKR , write its pEC50.
A) 9.17
